Data credit: ChEMBL document CHEMBL1140445

- tested.on: Guanine nucleotide-binding protein G(i) subunit alpha-3 (Homo sapiens)
- Sequence (P08754 whole entry): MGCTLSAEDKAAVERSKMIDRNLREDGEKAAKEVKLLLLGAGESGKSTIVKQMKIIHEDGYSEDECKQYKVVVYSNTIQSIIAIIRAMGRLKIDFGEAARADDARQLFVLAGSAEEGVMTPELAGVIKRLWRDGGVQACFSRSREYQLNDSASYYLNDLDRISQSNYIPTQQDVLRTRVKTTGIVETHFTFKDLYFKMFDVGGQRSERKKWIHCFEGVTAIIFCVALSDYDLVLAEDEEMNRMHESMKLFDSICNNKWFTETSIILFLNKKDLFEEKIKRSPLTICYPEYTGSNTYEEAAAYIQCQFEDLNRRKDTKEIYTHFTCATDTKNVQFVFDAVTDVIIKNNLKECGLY
- test.description: Percent stimulation of [35S]GTP-gamma-S, binding to G alpha i3 at 5E-5 M of basal for 30 minutes
- Format: functional
assay.readout: Stimulation (%)
One number for each entry, in %.

Sample answers from the record:
chemical.string | assay.readout | numeric.value
CCCCCCCCCCCCCCCN1CCC(NC2CCNCC2)CC1 | Stimulation | 2280
CCCCCCCCCCCCCCCN1CCC(CCC2CCN(C)CC2)CC1 | Stimulation | 102
CCCCCCCCCCCCCCCNCC1CCN(CCN)CC1 | Stimulation | 815
CCCCCCCCCCCCCCCN1CCC(C2CCN(C)CC2)CC1 | Stimulation | 80

Request: Answer with Stimulation of `CCCCCCCCCCCCCCCN1CCC(CCC2CCNCC2)CC1` measured for Guanine nucleotide-binding protein G(i) subunit alpha-3 (Homo sapiens).
Result: 2400

###

- tested.on: Guanine nucleotide-binding protein G(i) subunit alpha-3 (Homo sapiens)
- test.description: Concentration required to stimulate binding of [35S]GTP-gamma-S, with G alpha i3
assay.readout: pEC50
One number for each entry, as −log10 of the molar value.

Previously resolved entries follow.
compound | assay.readout | numeric.value
CCCCCCCCCCCCCCC[N+]1(C)CCC(C2CCNCC2)CC1 (configuration not stated) | pEC50 | 4.80
CCCCCCCCCCCCCCC(=O)N1CCC(CCC2CCN(C)CC2)CC1 | pEC50 | 5.21
CCCCCCCCCCCCCN1CCC(C2CCNCC2)CC1 | pEC50 | 4.67
CCCCCCCCCCCCCCCN1CCC(C2CCNCC2)CC1 | pEC50 | 4.73
CCCCCCCCCCCCCCCNCC1CCNCC1 | pEC50 | 4.94
CCCCCCCCCCCCCCCN1CCN(N)CC1 | pEC50 | 5.19
CCCCCCCCCCCCCNC1CCNCC1 | pEC50 | 4.73
CCCCCCCCCCCCCCC(=O)NN1CCNCC1 | pEC50 | 4.60
CCCCCCCCCCCCCCCCC(=O)N1CCC(C2CCN(C)CC2)CC1 | pEC50 | 4.63
CCCCCCCCCCCCCCCCC(=O)N1CCC(C2CCNCC2)CC1 | pEC50 | 4.61

Fill in pEC50 for each of the 2 compounds listed.
1. CCCCCCCCCCCCCCC(=O)N1CCC(C2CCN(C)CC2)CC1
2. CCCCCCCCCCCCCCCNCC1CCN(CCN)CC1

Result:
4.75
4.64

###

I'd be grateful if you could share measured EC50 for these entries.
- tested.on: Guanine nucleotide-binding protein G(o) subunit alpha (Homo sapiens)
- Sequence (P09471 whole entry): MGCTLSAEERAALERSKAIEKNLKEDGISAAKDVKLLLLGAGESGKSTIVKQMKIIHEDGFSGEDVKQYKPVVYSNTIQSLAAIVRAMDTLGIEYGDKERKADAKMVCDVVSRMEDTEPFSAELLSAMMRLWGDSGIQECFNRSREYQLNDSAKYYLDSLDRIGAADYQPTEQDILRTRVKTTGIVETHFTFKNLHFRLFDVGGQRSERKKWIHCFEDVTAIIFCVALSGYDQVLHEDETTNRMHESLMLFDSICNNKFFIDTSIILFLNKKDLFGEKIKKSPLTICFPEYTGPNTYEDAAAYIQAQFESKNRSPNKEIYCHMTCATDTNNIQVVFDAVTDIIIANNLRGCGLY
- test.description: Concentration required to stimulate binding of [35S]GTP-gamma-S, with G alpha o1
Answers are plain numbers, in µM.

Check out these entries, answers already filled in.
chemical.string | EC50 (µM)
CCCCCCCCCCCCCCCNC1CCNCC1 | 13.3
CCCCCCCCCCCCCCCNCC1CCNCC1 | 12.4
CCCCCCCCCCCCC(=O)N1CCC(C2CCNCC2)CC1 | 18.1

Would you be so kind as to report EC50 for each listed record?
1. CCCCCCCCCCCCCCCNCC1CCN(CCN)CC1
2. CCCCCCCCCCCCCN1CCC(C2CCN(C)CC2)CC1

Result:
24.3
19.3

###

Consider the following compounds; for each one, report its EC50.
- tested.on: Guanine nucleotide-binding protein G(o) subunit alpha (Homo sapiens)
- test.description: Concentration required to stimulate binding of [35S]GTP-gamma-S, with G alpha o1
Write the numeric value and follow it with the unit.

chemical.string | tested.on | EC50
CCCCCCCCCCCCCNC1CCNCC1 | Guanine nucleotide-binding protein G(o) subunit alpha (Homo sapiens) | 25.5 µM
CCCCCCCCCCCCCN1CCC(C2CCNCC2)CC1 | Guanine nucleotide-binding protein G(o) subunit alpha (Homo sapiens) | 27.1 µM
CCCCCCCCCCCCCCCNC(=O)C1CCNCC1 | Guanine nucleotide-binding protein G(o) subunit alpha (Homo sapiens) | 8.2 µM

Request: State its EC50 for this compound: `CCCCCCCCCCCCCCCN1CCC(N)CC1`
Result: 23 µM
